- system-under-test: Vascular endothelial growth factor receptor 2 (Homo sapiens)
- Sequence (P35968 whole entry): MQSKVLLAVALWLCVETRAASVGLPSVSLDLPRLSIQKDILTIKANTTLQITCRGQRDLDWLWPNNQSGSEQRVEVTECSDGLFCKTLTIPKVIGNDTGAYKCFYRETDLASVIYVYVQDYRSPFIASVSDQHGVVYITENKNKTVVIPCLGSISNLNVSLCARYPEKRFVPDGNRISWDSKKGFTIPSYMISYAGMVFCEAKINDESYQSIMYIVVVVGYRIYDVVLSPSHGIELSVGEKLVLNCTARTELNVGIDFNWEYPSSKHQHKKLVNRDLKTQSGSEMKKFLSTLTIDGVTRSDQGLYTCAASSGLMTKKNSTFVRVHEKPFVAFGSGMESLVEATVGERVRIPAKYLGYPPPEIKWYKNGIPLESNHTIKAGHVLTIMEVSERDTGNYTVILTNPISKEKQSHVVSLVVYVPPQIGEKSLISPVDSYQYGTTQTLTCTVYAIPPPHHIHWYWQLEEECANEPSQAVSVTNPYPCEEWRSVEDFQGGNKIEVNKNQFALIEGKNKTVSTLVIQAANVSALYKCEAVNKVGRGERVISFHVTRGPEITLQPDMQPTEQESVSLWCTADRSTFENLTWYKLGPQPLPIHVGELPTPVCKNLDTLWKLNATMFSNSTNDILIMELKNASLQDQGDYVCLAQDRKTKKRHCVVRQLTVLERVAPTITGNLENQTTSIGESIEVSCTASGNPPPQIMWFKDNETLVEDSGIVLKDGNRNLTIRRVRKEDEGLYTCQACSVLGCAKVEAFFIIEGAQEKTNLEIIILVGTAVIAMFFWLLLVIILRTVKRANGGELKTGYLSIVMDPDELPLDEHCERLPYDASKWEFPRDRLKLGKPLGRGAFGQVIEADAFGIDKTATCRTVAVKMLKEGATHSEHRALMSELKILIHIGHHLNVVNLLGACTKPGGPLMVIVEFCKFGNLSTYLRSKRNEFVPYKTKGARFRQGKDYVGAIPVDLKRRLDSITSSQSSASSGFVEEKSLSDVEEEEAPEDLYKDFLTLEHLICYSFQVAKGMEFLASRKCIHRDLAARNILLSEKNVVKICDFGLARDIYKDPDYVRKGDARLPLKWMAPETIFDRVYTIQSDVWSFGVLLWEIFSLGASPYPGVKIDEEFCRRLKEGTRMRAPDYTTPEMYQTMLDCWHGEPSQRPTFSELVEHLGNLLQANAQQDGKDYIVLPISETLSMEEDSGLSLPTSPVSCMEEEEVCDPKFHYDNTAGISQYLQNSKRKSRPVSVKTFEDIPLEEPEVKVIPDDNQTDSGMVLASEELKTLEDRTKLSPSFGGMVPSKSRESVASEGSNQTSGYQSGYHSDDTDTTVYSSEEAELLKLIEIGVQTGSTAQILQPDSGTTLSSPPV
- method-summary: Inhibition of recombinant KDR by HTRF assay
endpoint: log10 IC50 (log10 of the value in nM)
log10 IC50, nM

>>> df
                              line_notation  reported
0  COc1cc2nccc(Oc3ccc4c(NC(=O)c5cc(Cl)ccn5)nn(C)c4c3)c2cc1OC      0.30
1  COc1cc2nccc(Oc3ccc4c(Nc5ccccc5)nn(C)c4c3)c2cc1OC      2.43
2  CCNc1nn(C)c2cc(Oc3ccnc4cc(OC)c(OC)cc34)ccc12      2.57
3  COc1cc2nccc(Oc3ccc4c(NC(=O)c5ccc(Cl)cc5)nn(C)c4c3)c2cc1OC      0.70

# input for lookup
# query: log10 IC50 of entry COc1ccc(Nc2nn(C)c3cc(Oc4ccnc5cc(OC)c(OC)cc45)ccc23)cc1
2.20
